Catalogue of binders with associated pIC50
# TESTED_TARGET: beta-catenin (human)
# Sequence (B6V8E6 146-665 limits assumed): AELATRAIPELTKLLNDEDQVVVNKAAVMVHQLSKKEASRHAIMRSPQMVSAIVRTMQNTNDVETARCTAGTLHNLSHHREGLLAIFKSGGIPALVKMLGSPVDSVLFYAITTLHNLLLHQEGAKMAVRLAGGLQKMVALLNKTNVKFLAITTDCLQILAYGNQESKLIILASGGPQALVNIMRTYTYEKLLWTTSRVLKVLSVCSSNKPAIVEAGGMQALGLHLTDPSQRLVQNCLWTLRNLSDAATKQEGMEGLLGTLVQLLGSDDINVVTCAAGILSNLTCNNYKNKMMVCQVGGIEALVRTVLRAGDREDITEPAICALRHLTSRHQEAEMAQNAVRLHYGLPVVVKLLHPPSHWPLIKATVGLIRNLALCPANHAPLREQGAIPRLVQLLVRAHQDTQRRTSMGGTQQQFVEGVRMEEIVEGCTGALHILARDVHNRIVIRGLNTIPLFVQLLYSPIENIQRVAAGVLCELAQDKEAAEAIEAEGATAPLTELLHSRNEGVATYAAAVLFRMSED
# TEST_DETAILS: fluorescence polarization; bin >50 nM
pIC50: −log10 of the molar value. *1 amine or outer side, *2 acyl side, *3 side chain or, on linkers, in order; H or OH if unused. Bridges are numbered along the chain shown (N, C = ends). Primed or numbered codes have the meaning given here. [ ]: non-standard residue; d: D form. B5(4) = 2-amino-2-(pent-4-en-1-yl)hept-6-enoic acid, stapled through each of its two olefin groups with other olefin-containing amino acid residues, O=C(C(CCCC=[*:3])(CCCC=[*:4])N[*:1])[*:2]; PyrS2″ = (S)-3-amino-1-((pent-4-en-1-yloxy)carbonyl)pyrrolidine-3-carboxylic acid (olefin stapling residue), C=CCCCOC(=O)N1CC[C@@](N[*:1])(C(=O)[*:2])C1; 2F3MeF(3) = aromatic amino acid residue, Cc1cccc(C[C@H](N[*:1])C(=O)[*:2])c1F; Phe(3-COOH) = N[C@@H](Cc1cccc(C(=O)O)c1)C(=O)O; αAllylPro = C=CC[C@@]1(C(=O)O)CCCN1; BztA = aromatic amino acid residue; 4mampiperidine = not defined here; tBuAla = CC(C)(C)C[C@H](N)C(=O)O; 3Thi = N[C@@H](Cc1ccsc1)C(=O)O; hSer = N[C@@H](CCO)C(=O)O; GlnR = not defined here; PL3 = not defined here; B5 = not defined here

| BINDER | EXPERIMENTAL_RESULT |
| --- | --- |
| Ac-[αAllylPro]D[tBuAla][B5(4)]D[Phe(3-COOH)][GlnR]AFL[PyrS2″][2F3MeF(3)][BztA][GlnR](4mampiperidine)A-NH2 (staple 1-4 (inferred); not fully specified (bridges); printed as Ac-PL3-Asp-Npg-B5-Asp-3COOHF-GlnR-Ala-Phe-Leu-PyrS2-2F3MeF-BztA-[4mampiperidine]GlnR-Ala-NH2; reading uncertain) [I-95] | > 6.70 |

Could you now consider this next binder?
response.value for Ac-[PL3][hSer][tBuAla][B5]D[Phe(3-COOH)]AAFK[PyrS2″][3Thi][BztA][GlnR]A-NH2 (staple 1-4 (inferred); bridge 10-14; not fully specified (residue 10, bridges); printed as Ac-PL3-Hse-Npg-B5-Asp-3COOHF-Ala-Ala-Phe-Lys*3-PyrS2-3Thi-BztA-GlnR*3-Ala-NH2; reading uncertain) [I-81] (field: pIC50) = > 6.70

The reported measurements were obtained from patent US20260207704A1.
